System: 349418-098-R-PDC spheroids, viability, % test/control
testMethodNotes: Anticancer human tumor 349418-098-R-PDC patient-derived lung adenocarcinoma cell line growth inhibition [IpAb]; active = viability on the fitted dose curve at most 10% of control; inactive = the rest
conditions: second compound 0.316 µM; first compound 1 µM; spheroids with HUVEC and MSC
Please state which outcome applies, choosing from active, inactive

Exercise: // outcome(item) with item = Cn1ncc(Cl)c1-c1cc(C(=O)NC(CN)Cc2cccc(F)c2)sc1Cl (stereo not drawn) + CC(C)NCC(C(=O)N1CCN(c2ncnc3c2C(C)CC3O)CC1)c1ccc(Cl)cc1
Key: inactive

Exercise: Dear all, I need the recorded test outcome for Cn1ncc(Cl)c1-c1cc(C(=O)NC(CN)Cc2cccc(F)c2)sc1Cl (stereo not drawn) + CCN1CCN(Cc2ccc(Nc3ncc(F)c(-c4cc(F)c5nc(C)n(C(C)C)c5c4)n3)nc2)CC1 , thank you.
Key: active

Exercise: Just curious, what result did CCCS(=O)(=O)Nc1ccc(F)c(C(=O)c2c[nH]c3ncc(-c4ccc(Cl)cc4)cc23)c1F + CCN1CCN(Cc2ccc(Nc3ncc(F)c(-c4cc(F)c5nc(C)n(C(C)C)c5c4)n3)nc2)CC1 get here?
Key: inactive

* * *

Test system: 349418-098-R-PDC spheroids, viability, % test/control
testMethodNotes: Anticancer human tumor 349418-098-R-PDC cell line growth inhibition [IpAb];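 note: spheroids exposed to compounds for 7 days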
conditions: second compound 1 µM; first compound 10 µM; active compounds read low; spheroids with HUVEC and MSC
Description: Combinatorial screen of targeted agents with ipatasertib and abemaciclib in multi-cell type tumor spheroids […] Compounds. […] If the clinical Cmax for an agent had not been determined, the highest concentration tested was 10 microM. NCI60 Cell Culture. […] The optimal seeding densities for each of the cell lines at each time point assessed were determined prior to performing the concentration response studies. […]
metric: viability, T/C (%)
State the answer as a number, implicitly in %.

Exercise: Which viability, T/C reading was recorded for the molecule Cc1nc(NC(=O)N2CCCC2C(N)=O)sc1-c1ccnc(C(C)(C)C(F)(F)F)c1 (stereo not given) + CC(C)NCC(C(=O)N1CCN(c2ncnc3c2C(C)CC3O)CC1)c1ccc(Cl)cc1 ?
Key: 8.68

Exercise: What viability, T/C value was documented for this molecule, C=CC(=O)N1CCN(c2nc(=O)n(-c3c(C)ccnc3C(C)C)c3nc(-c4c(O)cccc4F)c(F)cc23)C(C)C1 (stereo not given) + CCN1CCN(Cc2ccc(Nc3ncc(F)c(-c4cc(F)c5nc(C)n(C(C)C)c5c4)n3)nc2)CC1 ?
Key: 10.9

Exercise: Return reported viability, T/C; argument: CCCS(=O)(=O)Nc1ccc(F)c(C(=O)c2c[nH]c3ncc(-c4ccc(Cl)cc4)cc23)c1F + CCN1CCN(Cc2ccc(Nc3ncc(F)c(-c4cc(F)c5nc(C)n(C(C)C)c5c4)n3)nc2)CC1
Key: 7.05

Exercise: Look up viability, T/C: Cn1nccc1Nc1nccc(-c2ccn(C(CO)c3ccc(Cl)c(F)c3)c(=O)c2)n1 (stereo not given) + CC(C)NCC(C(=O)N1CCN(c2ncnc3c2C(C)CC3O)CC1)c1ccc(Cl)cc1
Key: 11

Exercise: For the molecule shown here, C=CCn1c(=O)c2cnc(Nc3ccc(N4CCN(C)CC4)cc3)nc2n1-c1cccc(C(C)(C)O)n1 + CC(C)NCC(C(=O)N1CCN(c2ncnc3c2C(C)CC3O)CC1)c1ccc(Cl)cc1 , give the reported viability, T/C.
Key: 3.54

* * *

I'd appreciate it if you could supply viability, T/C values for the items below.
Test system: 349418-098-R-PDC spheroids, viability, % test/control
testMethodNotes: Anticancer human tumor 349418-098-R-PDC cell line growth inhibition [IpAb];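 note: spheroids exposed to compounds for 7 days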
conditions: second compound 0.316 µM; first compound 0.03 µM; active compounds read low; spheroids with HUVEC and MSC
Reply with just the number (in %).

Exercise: Lab note: need viability, T/C with 349418-098-R-PDC spheroids, viability, % test/control for entry CC(=O)c1c(C)c2cnc(Nc3ccc(N4CCNCC4)cn3)nc2n(C2CCCC2)c1=O + CCN1CCN(Cc2ccc(Nc3ncc(F)c(-c4cc(F)c5nc(C)n(C(C)C)c5c4)n3)nc2)CC1 , please look it up.
Key: 16

Exercise: Param readout= viability, T/C; system= 349418-098-R-PDC spheroids, viability, % test/control; entry= CC(=O)c1c(C)c2cnc(Nc3ccc(N4CCNCC4)cn3)nc2n(C2CCCC2)c1=O + CC(C)NCC(C(=O)N1CCN(c2ncnc3c2C(C)CC3O)CC1)c1ccc(Cl)cc1 ; returns value.
Key: 15.5

Exercise: Report viability, T/C for Cn1cnc2c(F)c(Nc3ccc(Br)cc3Cl)c(C(=O)NOCCO)cc21 + CC(C)NCC(C(=O)N1CCN(c2ncnc3c2C(C)CC3O)CC1)c1ccc(Cl)cc1 tested on 349418-098-R-PDC spheroids, viability, % test/control.
Key: 24.6

Exercise: Recall the recorded viability, T/C for CC(C)(C)c1cnc(CSc2cnc(NC(=O)C3CCNCC3)s2)o1 + CCN1CCN(Cc2ccc(Nc3ncc(F)c(-c4cc(F)c5nc(C)n(C(C)C)c5c4)n3)nc2)CC1 with 349418-098-R-PDC spheroids, viability, % test/control and state it.
Key: 13.7

Exercise: Lab note: need viability, T/C with 349418-098-R-PDC spheroids, viability, % test/control for entry CC(C)(C)c1cnc(CSc2cnc(NC(=O)C3CCNCC3)s2)o1 + CC(C)NCC(C(=O)N1CCN(c2ncnc3c2C(C)CC3O)CC1)c1ccc(Cl)cc1 , please look it up.
Key: 31.9

Exercise: viability, T/C of Cn1cnc2c(F)c(Nc3ccc(Br)cc3Cl)c(C(=O)NOCCO)cc21 + CCN1CCN(Cc2ccc(Nc3ncc(F)c(-c4cc(F)c5nc(C)n(C(C)C)c5c4)n3)nc2)CC1 on 349418-098-R-PDC spheroids, viability, % test/control?
Key: 11.2

* * *

Tested on: 349418-098-R-PDC spheroids, viability, % test/control
testMethodNotes: Anticancer human tumor 349418-098-R-PDC cell line growth inhibition [IpAb];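 note: spheroids exposed to compounds for 7 days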
conditions: second compound 0.0316 µM; first compound 0.1 µM; active compounds read low; spheroids with HUVEC and MSC
# MET = viability, T/C below 20% (exclusive); NOT MET = viability, T/C at/above 20%

Exercise: Consider the molecule Cn1ncnc1[C@H]1c2n[nH]c(=O)c3cc(F)cc(c23)N[C@@H]1c1ccc(F)cc1 + CCN1CCN(Cc2ccc(Nc3ncc(F)c(-c4cc(F)c5nc(C)n(C(C)C)c5c4)n3)nc2)CC1 . Is its viability, T/C strictly less than 20%?
Key: NOT MET

Exercise: Input Cc1nc(NC(=O)N2CCCC2C(N)=O)sc1-c1ccnc(C(C)(C)C(F)(F)F)c1 (stereo not given) + CCN1CCN(Cc2ccc(Nc3ncc(F)c(-c4cc(F)c5nc(C)n(C(C)C)c5c4)n3)nc2)CC1 ; condition: viability, T/C strictly below 20%. Does it hold?
Key: NOT MET

Exercise: Quick check: does Cn1nccc1Nc1nccc(-c2ccn(C(CO)c3ccc(Cl)c(F)c3)c(=O)c2)n1 (stereo not given) + CCN1CCN(Cc2ccc(Nc3ncc(F)c(-c4cc(F)c5nc(C)n(C(C)C)c5c4)n3)nc2)CC1 have viability, T/C under 20%?
Key: NOT MET

Exercise: Bench note: check whether CC(C)n1nc(-c2ccc3oc(N)nc3c2)c2c(N)ncnc21 + CCN1CCN(Cc2ccc(Nc3ncc(F)c(-c4cc(F)c5nc(C)n(C(C)C)c5c4)n3)nc2)CC1 shows viability, T/C below 20%
Key: MET

Exercise: Problem: For the molecule C=CC(=O)N1CCN(c2nc(=O)n(-c3c(C)ccnc3C(C)C)c3nc(-c4c(O)cccc4F)c(F)cc23)C(C)C1 (stereo not given) + CCN1CCN(Cc2ccc(Nc3ncc(F)c(-c4cc(F)c5nc(C)n(C(C)C)c5c4)n3)nc2)CC1 , is viability, T/C under 20%?
Key: NOT MET

* * *

System: 349418-098-R-PDC spheroids, viability, % test/control
testMethodNotes: Anticancer human tumor 349418-098-R-PDC cell line growth inhibition [IpAb];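 note: spheroids exposed to compounds for 7 days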
conditions: second compound 10 µM; first compound 1 µM; active compounds read low; spheroids with HUVEC and MSC
metric: viability, T/C (%)
Use % as the unit, but write only the number.

Exercise: Fill in the blank: the reported viability, T/C of CC1(C)CCC(CN2CCN(c3ccc(C(=O)NS(=O)(=O)c4ccc(NCC5CCOCC5)c([N+](=O)[O-])c4)c(Oc4cnc5[nH]ccc5c4)c3)CC2)=C(c2ccc(Cl)cc2)C1 + CC(C)NCC(C(=O)N1CCN(c2ncnc3c2C(C)CC3O)CC1)c1ccc(Cl)cc1 is ____.
Key: 7.39

Exercise: Recorded viability, T/C for COc1c(OCCCN2CCOCC2)ccc2c3n(c(=NC(=O)c4cnc(N)nc4)nc12)CCN3 + CC(C)NCC(C(=O)N1CCN(c2ncnc3c2C(C)CC3O)CC1)c1ccc(Cl)cc1 , please?
Key: 4.49

Exercise: Please report the recorded viability, T/C for Cn1nccc1Nc1nccc(-c2ccn(C(CO)c3ccc(Cl)c(F)c3)c(=O)c2)n1 (stereo not drawn) + CC(C)NCC(C(=O)N1CCN(c2ncnc3c2C(C)CC3O)CC1)c1ccc(Cl)cc1 .
Key: 4.43

Exercise: # input compound: Cn1ncc(Cl)c1-c1cc(C(=O)NC(CN)Cc2cccc(F)c2)sc1Cl (stereo not drawn) + CC(C)NCC(C(=O)N1CCN(c2ncnc3c2C(C)CC3O)CC1)c1ccc(Cl)cc1 ; wanted: its viability, T/C
Key: 6.63

Exercise: Sample Cc1nc(NC(=O)N2CCCC2C(N)=O)sc1-c1ccnc(C(C)(C)C(F)(F)F)c1 (stereo not drawn) + CC(C)NCC(C(=O)N1CCN(c2ncnc3c2C(C)CC3O)CC1)c1ccc(Cl)cc1 — what was its viability, T/C?
Key: 6.51

Exercise: // viability, T/C lookup, key: C=CC(=O)N1CCN(c2nc(=O)n(-c3c(C)ccnc3C(C)C)c3nc(-c4c(O)cccc4F)c(F)cc23)C(C)C1 (stereo not drawn) + CC(C)NCC(C(=O)N1CCN(c2ncnc3c2C(C)CC3O)CC1)c1ccc(Cl)cc1
Key: 5.09

Exercise: Please look up its viability, T/C: C=CCn1c(=O)c2cnc(Nc3ccc(N4CCN(C)CC4)cc3)nc2n1-c1cccc(C(C)(C)O)n1 + CC(C)NCC(C(=O)N1CCN(c2ncnc3c2C(C)CC3O)CC1)c1ccc(Cl)cc1
Key: 2.99

Exercise: Return reported viability, T/C; argument: CCCS(=O)(=O)Nc1ccc(F)c(C(=O)c2c[nH]c3ncc(-c4ccc(Cl)cc4)cc23)c1F + CC(C)NCC(C(=O)N1CCN(c2ncnc3c2C(C)CC3O)CC1)c1ccc(Cl)cc1
Key: 5.62
